Let's look at some compounds and their measured pEC50.
tested on: ADR5000 cell line; assay: Cytotoxicity against human CEM/ADR5000 cells overexpressing P-gp assessed as reduction in cell viability after 72 hrs by resazurin dye based assay; format: functional; conditions: ADR5000, 72 h
pEC50: −log10 of the molar value.

compound | pEC50
CC1=C(CCOC(=O)CCC(=O)O[C@@H]2O[C@@H]3O[C@@]4(C)CC[C@H]5[C@H](C)CC[C@@H]([C@H]2C)[C@@]35OO4)C(=O)C(C(C)C)=CC1=O | 6.00
CC1=C(CCCOC(=O)CCC(=O)O[C@@H]2O[C@@H]3O[C@@]4(C)CC[C@H]5[C@H](C)CC[C@@H]([C@H]2C)[C@@]35OO4)C(=O)C(C(C)C)=CC1=O | 5.89
CC1=C(CCCCOC(=O)CCC(=O)OCC(C[C@H]2O[C@@H]3O[C@@]4(C)CC[C@H]5[C@H](C)CC[C@@H]([C@H]2C)[C@@]35OO4)C[C@H]2O[C@@H]3O[C@@]4(C)CC[C@H]5[C@H](C)CC[C@@H]([C@H]2C)[C@@]35OO4)C(=O)C(C(C)C)=CC1=O (stereo not given in full) | 5.10
CC1=C(CCCOC2O[C@@H]3O[C@@]4(C)CC[C@H]5[C@H](C)CC[C@@H]([C@H]2C)[C@@]35OO4)C(=O)C(C(C)C)=CC1=O (stereo not given in full) | 6.70
CC1=C(CCCOC(=O)CC(=O)OCCOC(=O)CCC(=O)O[C@@H]2O[C@@H]3O[C@@]4(C)CC[C@H]5[C@H](C)CC[C@@H]([C@H]2C)[C@@]35OO4)C(=O)C(C(C)C)=CC1=O | 5.09

* * *

tested on: ADR5000 cell line; experiment: Cytotoxicity against human CEM/ADR5000 cells overexpressing P-gp assessed as reduction in cell viability after 72 hrs by resazurin dye based assay; assay type: functional; settings: ADR5000, 72 h
pEC50: −log10 of the molar value.
reported-property: pEC50

molecule | endpoint-result
CC1=C(CCCCOC2O[C@@H]3O[C@@]4(C)CC[C@H]5[C@H](C)CC[C@@H]([C@H]2C)[C@@]35OO4)C(=O)C(C(C)C)=CC1=O (stereo partly drawn) | 6.70
CC1=C(CCCCOC(=O)CCC(=O)O[C@@H]2O[C@@H]3O[C@@]4(C)CC[C@H]5[C@H](C)CC[C@@H]([C@H]2C)[C@@]35OO4)C(=O)C(C(C)C)=CC1=O | 6.10
COc1cccc2c1C(=O)c1c(O)c3c(c(O)c1C2=O)C[C@@](O)(C(=O)CO)C[C@@H]3O[C@H]1C[C@H](N)[C@H](O)[C@H](C)O1 | 4.63

* * *

system: ADR5000 cell line; assay: Cytotoxicity against human CEM/ADR5000 cells overexpressing P-gp assessed as reduction in cell viability after 72 hrs by resazurin dye based assay; type: functional; conditions: ADR5000, 72 h
pEC50: −log10 of the molar value.
reported-property: pEC50

molecule | reported-property | endpoint-result
CC1=C(CCCCOC(=O)CCC(=O)O[C@@H]2O[C@@H]3O[C@@]4(C)CC[C@H]5[C@H](C)CC[C@@H]([C@H]2C)[C@@]35OO4)C(=O)C(C(C)C)=C(CCCCOC(=O)CCC(=O)O[C@@H]2O[C@@H]3O[C@@]4(C)CC[C@H]5[C@H](C)CC[C@@H]([C@H]2C)[C@@]35OO4)C1=O | pEC50 | 5.25
CC1=C(CCCOC(=O)CCC(=O)O[C@@H]2O[C@@H]3O[C@@]4(C)CC[C@H]5[C@H](C)CC[C@@H]([C@H]2C)[C@@]35OO4)C(=O)C(C(C)C)=C(CCCOC(=O)CCC(=O)O[C@@H]2O[C@@H]3O[C@@]4(C)CC[C@H]5[C@H](C)CC[C@@H]([C@H]2C)[C@@]35OO4)C1=O | pEC50 | 6.70
C[C@H]1[C@H](OC(=O)CCC(=O)O)O[C@@H]2O[C@@]3(C)CC[C@H]4[C@H](C)CC[C@@H]1[C@@]24OO3 [ARTESUNATE] | pEC50 | 7.00
